# procedure text: The compound was tested for its ability to inhibit ErmC methylase at 100 uM
The compounds listed here are annotated with their inhibition.
reported metric: inhibition (%)

Nc1nc(CC[C@@H]2O[C@H](COCc3ccc(Br)cc3)[C@@H](O)[C@H]2O)nc(NC2Cc3ccccc3C2)n1 : 37.5
Nc1nc(CC2O[C@H](CSCCc3ccccc3)[C@@H](O)[C@H]2O)nc(NC2Cc3ccccc3C2)n1 (some centres not stated) : 39.9
Nc1nc(CC2O[C@H](CSCc3ccccc3)[C@@H](O)[C@H]2O)nc(NC2Cc3ccccc3C2)n1 (some centres not stated) : 10
Nc1nc(CC2O[C@H](COCc3ccccc3)[C@@H](O)[C@H]2O)nc(NC2Cc3ccccc3C2)n1 (some centres not stated) : 5.5
Cc1ccc(COC[C@H]2O[C@@H](Cc3nc(N)nc(NC4Cc5ccccc5C4)n3)[C@H](O)[C@@H]2O)cc1 : 0
Nc1nc(NC2Cc3ccccc3C2)nc([C@H]2C[C@@H](O)[C@H](O)[C@H](OCc3ccccc3)C2)n1 : 17.7
Nc1nc(CC2O[C@H](CSc3ccccc3)[C@@H](O)[C@H]2O)nc(NC2Cc3ccccc3C2)n1 (some centres not stated) : 28

* * *

# procedure text: The compound was tested for its binding ability to inhibit ErmAM methylase
pKi: −log10 of the molar value.
The molecules listed here are annotated with their pKi.
reported metric: pKi

Nc1nc(NC2Cc3ccccc3C2)cc(-c2ccc(NCCCc3ccccc3O)cc2)n1 : 5.00
Nc1nc(NC2Cc3ccccc3C2)nc(N2CCCCC2)n1 : 5.10

* * *

# procedure text: The compound was tested for its ability to inhibit ErmAM methylase at 100 uM
reported metric: inhibition (%)

Nc1nc(CC2O[C@H](CSCCc3ccccc3)[C@@H](O)[C@H]2O)nc(NC2Cc3ccccc3C2)n1 (some centres not stated) : 18
Nc1nc(CC2O[C@H](COCc3ccccc3)[C@@H](O)[C@H]2O)nc(NC2Cc3ccccc3C2)n1 (some centres not stated) : 16.9
Nc1nc(CC[C@@H]2O[C@H](COCc3ccc(Br)cc3)[C@@H](O)[C@H]2O)nc(NC2Cc3ccccc3C2)n1 : 55
Cc1ccc(COC[C@H]2O[C@@H](Cc3nc(N)nc(NC4Cc5ccccc5C4)n3)[C@H](O)[C@@H]2O)cc1 : 15
Nc1nc(NC2Cc3ccccc3C2)nc([C@H]2C[C@@H](O)[C@H](O)[C@H](OCc3ccccc3)C2)n1 : 9.9
Nc1nc(CC2O[C@H](CSc3ccccc3)[C@@H](O)[C@H]2O)nc(NC2Cc3ccccc3C2)n1 (some centres not stated) : 3.4
Nc1nc(CC2O[C@H](CSCc3ccccc3)[C@@H](O)[C@H]2O)nc(NC2Cc3ccccc3C2)n1 (some centres not stated) : 10
